System: HSV-1
Assay Name: Virus inhibition, HSV-1 on Vero cells (PrestoBlue)
Assay type: cell-based, herpes simplex virus type 1 (MacIntyre strain)
Condition Details: at the non-toxic concentration of Table 1; MOI 0.1; compound and virus added simultaneously; parentheses = greater cell death than virus alone
Experimental: Viruses and Quantification. Herpes simplex virus type 1 (HSV-1, MacIntyre strain, ATCC, VR-539) or herpes simplex virus type 2 (HSV-2, ATCC, VR-734) were used in these studies. Virus titer was determined by plaque assay. […] After incubation, cells were fixed with methanol, stained with Giemsa (Sigma Chemical Company, St. Louis, Mo.) and plaques were counted. […]
Readout: Percent Inhibition of HSV-1

CC(C)=CCC[C@@](C)(O)[C@H]1CC[C@]2(C)[C@@H]1[C@H](O)C[C@@H]1[C@@]3(C)CC[C@H](O)C(C)(C)[C@@H]3CC[C@]12C [20(R)-protopanaxadiol, reference compound] :: 14.4%
CC(C)=CCC[C@@](C)(O)C1CC[C@]2(C)C1[C@H](O)CC1[C@@]3(C)CC[C@H](O[C@@H]4OC(CO)[C@@H](O)[C@@H](O)C4O[C@@H]4OC(CO)[C@@H](O)[C@@H](O)C4O)C(C)(C)C3CC[C@]12C (stereo partly drawn) [20(R)-Rg3, 20(R)-ginsenoside-Rg3] :: 22.7%

Q: Param item = `CC(C)=CCC[C@](C)(O[C@@H]1O[C@H](CO[C@@H]2OC[C@@H](O)[C@H](O)[C@H]2O)[C@@H](O)[C@H](O)[C@H]1O)[C@H]1CC[C@]2(C)[C@@H]1[C@H](O)C[C@@H]1[C@@]3(C)CC[C@H](O[C@@H]4O[C@H](CO)[C@@H](O)[C@H](O)[C@H]4O[C@@H]4O[C@H](CO)[C@@H](O)[C@H](O)[C@H]4O)C(C)(C)[C@@H]3CC[C@]12C` ; retrieve measured Percent Inhibition of HSV-1.
Ans: 30.9%

Q: Param item = `CC(C)=CCC[C@](C)(O[C@@H]1O[C@H](CO)[C@@H](O)[C@H](O)[C@H]1O)[C@H]1CC[C@]2(C)[C@@H]1[C@H](O)C[C@@H]1[C@@]3(C)CC[C@H](O)C(C)(C)[C@@H]3[C@@H](O[C@@H]3O[C@H](CO)[C@@H](O)[C@H](O)[C@H]3O)C[C@]12C` ; retrieve measured Percent Inhibition of HSV-1.
Ans: 13.2%

Q: Param item = `CC(C)=CCC[C@](C)(O[C@@H]1O[C@H](CO[C@@H]2OC[C@H](O)[C@H](O)[C@H]2O)[C@@H](O)[C@H](O)[C@H]1O)[C@H]1CC[C@]2(C)[C@@H]1[C@H](O)C[C@@H]1[C@@]3(C)CC[C@H](O[C@@H]4O[C@H](CO)[C@@H](O)[C@H](O)[C@H]4O[C@@H]4O[C@H](CO)[C@@H](O)[C@H](O)[C@H]4O)C(C)(C)[C@@H]3CC[C@]12C` ; retrieve measured Percent Inhibition of HSV-1.
Ans: 26.4%

Value source: patent US11980648B2
